- system-name: NR1/NR2B (Rattus norvegicus, UniProt P35439+Q00960)
- Construct: expressed in transfected cells; host or cells: Xenopus oocytes injected with in vitro transcribed RNA
- Sequence (Q00960 27-1482, other chains not shown): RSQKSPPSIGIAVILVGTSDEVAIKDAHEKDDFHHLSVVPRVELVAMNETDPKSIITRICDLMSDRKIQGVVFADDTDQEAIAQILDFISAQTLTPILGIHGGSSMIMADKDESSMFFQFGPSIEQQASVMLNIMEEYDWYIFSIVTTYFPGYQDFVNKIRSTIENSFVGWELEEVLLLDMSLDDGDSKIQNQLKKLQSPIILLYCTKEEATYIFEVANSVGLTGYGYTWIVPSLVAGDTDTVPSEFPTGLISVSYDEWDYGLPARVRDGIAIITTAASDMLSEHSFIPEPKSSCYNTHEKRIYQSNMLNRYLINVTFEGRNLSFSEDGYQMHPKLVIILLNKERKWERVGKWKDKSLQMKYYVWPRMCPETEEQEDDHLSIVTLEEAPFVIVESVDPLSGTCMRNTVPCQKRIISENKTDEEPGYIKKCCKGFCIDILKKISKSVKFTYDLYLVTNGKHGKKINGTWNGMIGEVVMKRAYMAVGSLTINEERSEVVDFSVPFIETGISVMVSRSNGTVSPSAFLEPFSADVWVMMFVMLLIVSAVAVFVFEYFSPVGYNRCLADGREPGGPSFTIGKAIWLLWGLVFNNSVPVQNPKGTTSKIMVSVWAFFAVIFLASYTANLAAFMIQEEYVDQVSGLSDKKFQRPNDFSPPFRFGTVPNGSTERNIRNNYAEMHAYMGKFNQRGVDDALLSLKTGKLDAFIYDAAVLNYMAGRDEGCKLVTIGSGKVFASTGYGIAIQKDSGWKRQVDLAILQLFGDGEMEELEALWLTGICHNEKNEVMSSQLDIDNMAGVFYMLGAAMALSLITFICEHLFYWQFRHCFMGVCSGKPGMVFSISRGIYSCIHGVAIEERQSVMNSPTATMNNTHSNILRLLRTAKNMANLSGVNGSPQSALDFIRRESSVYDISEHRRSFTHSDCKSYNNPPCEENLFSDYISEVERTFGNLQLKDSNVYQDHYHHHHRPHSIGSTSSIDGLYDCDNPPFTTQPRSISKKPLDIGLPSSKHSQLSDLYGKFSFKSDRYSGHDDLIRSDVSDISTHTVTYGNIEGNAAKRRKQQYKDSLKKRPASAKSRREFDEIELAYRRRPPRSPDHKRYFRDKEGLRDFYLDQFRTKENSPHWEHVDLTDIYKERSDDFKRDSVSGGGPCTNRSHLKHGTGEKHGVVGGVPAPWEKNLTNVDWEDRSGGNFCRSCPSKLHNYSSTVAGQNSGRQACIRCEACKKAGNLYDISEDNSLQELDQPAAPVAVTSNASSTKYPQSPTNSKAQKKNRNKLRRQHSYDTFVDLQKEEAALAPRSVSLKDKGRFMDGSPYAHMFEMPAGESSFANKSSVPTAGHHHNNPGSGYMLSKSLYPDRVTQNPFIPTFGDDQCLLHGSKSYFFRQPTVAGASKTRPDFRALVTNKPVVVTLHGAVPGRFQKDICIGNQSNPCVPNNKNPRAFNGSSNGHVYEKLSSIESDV
- run-description: two-microelectrode voltage clamp of recombinant NMDA receptors in Xenopus oocytes, NR1/NR2B
- Type: cell-based
measurement-type: Ki (µM)

> print(dat)
                                   compound  measurement.type  assay.value
1  O=C(O)[C@H]1NCCN(C(=O)c2ccc3c(ccc4ccccc43)c2)[C@H]1C(=O)O (racemic)                Ki         0.35
